Numbers sourced from paper PMC8036666.

# Test system: Enterococcus faecium ATCC 700221
# testContext: ATCC 700221, 24 h
Where a SMILES comes first, the peptide text is derived from it. Bridges are numbered along the chain shown (N, C = ends). Roman numbers before positions name the chains, in order. Side-chain parts run from the residue outwards. [ ]: non-standard residue; d: D form. The star is where a group is joined. Myristoyl = CCCCCCCCCCCCCC(=O)*; Lauroyl = CCCCCCCCCCCC(=O)*; Nle = CCCC[C@H](N)C(=O)O; Octanoyl = CCCCCCCC(=O)*
experimentalReadout: MIC Enterococcus faecium ATCC 700221
Please don't drop the unit; write it after the number.

Consider the following illustrative entries.
1. CCCCCCCC(=O)N[C@@H](CCCC)C(=O)N[C@@H](CCCNC(=N)N)C(=O)N[C@@H](CCCNC(=N)N)C(=O)N[C@@H](CSSC[C@H](NC(=O)[C@H](CCCNC(=N)N)NC(=O)[C@H](CCCNC(=N)N)NC(=O)[C@H](CCCC)NC(=O)CCCCCCC)C(N)=O)C(N)=O [Compound C6] (I: Octanoyl-[Nle]RRC-NH2 / II: Octanoyl-[Nle]RRC-NH2; disulfide I:4-II:4)    2 µg/mL
2. CCCCCCCC(=O)N[C@@H](CCCNC(=N)N)C(=O)N[C@@H](CCCNC(=N)N)C(=O)NCCCC[C@H](NC(=O)[C@H](CCCNC(=N)N)NC(=O)[C@H](CCCNC(=N)N)NC(=O)CCCCCCC)C(N)=O [Compound B1] (Octanoyl-Arg-Arg-Lys([Arg-Arg-Octanoyl])-NH2)    64 µg/mL
3. CCCCCCCCCCCC(=O)N[C@@H](CCCNC(=N)N)C(=O)N[C@@H](CCCNC(=N)N)C(N)=O [Compound A3, C12-RR-NH2] (Lauroyl-Arg-Arg-NH2)    32 µg/mL

Now consider a different compound.
// recorded MIC Enterococcus faecium ATCC 700221 for CCCCCCCCCCCCCC(=O)N[C@@H](CCCNC(=N)N)C(=O)N[C@@H](CCCNC(=N)N)C(=O)N[C@@H](CSSC[C@H](NC(=O)[C@H](CCCNC(=N)N)NC(=O)[C@H](CCCNC(=N)N)NC(=O)CCCCCCCCCCCCC)C(N)=O)C(N)=O [Compound C4] (I: Myristoyl-Arg-Arg-Cys-NH2 / II: Myristoyl-Arg-Arg-Cys-NH2; disulfide I:3-II:3) : 8 µg/mL
